# maps each entry to its EC50
Biological target: Glucocorticoid receptor (Homo sapiens, UniProt P04150)
Sequence (P04150 whole entry): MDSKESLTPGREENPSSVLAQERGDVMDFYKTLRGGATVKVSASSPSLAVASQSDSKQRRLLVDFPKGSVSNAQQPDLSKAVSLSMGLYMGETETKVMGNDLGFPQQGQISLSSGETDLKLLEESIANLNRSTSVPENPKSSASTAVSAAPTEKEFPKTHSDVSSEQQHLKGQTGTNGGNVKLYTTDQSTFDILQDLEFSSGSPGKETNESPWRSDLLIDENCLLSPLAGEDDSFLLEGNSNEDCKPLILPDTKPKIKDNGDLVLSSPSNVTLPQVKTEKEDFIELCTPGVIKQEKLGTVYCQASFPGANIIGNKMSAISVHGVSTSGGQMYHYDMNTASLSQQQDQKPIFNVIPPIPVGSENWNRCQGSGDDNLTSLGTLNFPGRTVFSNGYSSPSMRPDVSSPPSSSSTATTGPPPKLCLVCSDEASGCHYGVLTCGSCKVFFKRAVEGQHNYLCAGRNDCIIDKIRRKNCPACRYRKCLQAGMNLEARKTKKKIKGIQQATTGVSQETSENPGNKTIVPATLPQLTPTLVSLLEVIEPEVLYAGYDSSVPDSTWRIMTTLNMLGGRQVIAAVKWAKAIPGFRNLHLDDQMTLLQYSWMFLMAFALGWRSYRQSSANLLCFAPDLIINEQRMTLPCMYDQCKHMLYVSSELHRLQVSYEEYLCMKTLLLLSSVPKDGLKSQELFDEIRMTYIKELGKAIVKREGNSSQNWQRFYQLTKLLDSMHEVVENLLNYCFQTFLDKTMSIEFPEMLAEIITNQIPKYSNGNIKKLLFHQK
Entry rule: numbers only, all in nM.

Examples from the recorded data:
# Smiles text, Units symbol, EC50
rows = [
    ("C[C@]12C=CC(=O)C=C1[C@@H](F)C[C@H]1[C@@H]3C[C@H]4CN(c5ccccc5)C[C@@]4(C(=O)CO)[C@@]3(C)C[C@H](O)[C@@]12F", "nM", 1.3),
    ("CC(C)CCN1C[C@@H]2C[C@H]3[C@@H]4C[C@H](F)C5=CC(=O)C=C[C@]5(C)[C@@]4(F)[C@@H](O)C[C@]3(C)[C@]2(C(=O)CO)C1", "nM", 3.4),
    ("C[C@]12C=CC(=O)C=C1[C@@H](F)C[C@H]1[C@@H]3C[C@H]4CN(C(=O)c5ccccc5)C[C@@]4(C(=O)CO)[C@@]3(C)C[C@H](O)[C@@]12F", "nM", 248),
    ("C[C@]12C=CC(=O)C=C1[C@@H](F)C[C@H]1[C@@H]3C[C@H]4CN(Cc5cccc(Cl)c5)C[C@@]4(C(=O)CO)[C@@]3(C)C[C@H](O)[C@@]12F", "nM", 1.8),
    ("CC(=O)[C@@]12CN(Cc3cccc(Cl)c3)C[C@@H]1C[C@H]1[C@@H]3C[C@H](F)C4=CC(=O)C=C[C@]4(C)[C@@]3(F)[C@@H](O)C[C@@]12C", "nM", 7.7),
    ("C[C@]12C=CC(=O)C=C1[C@@H](F)C[C@H]1[C@@H]3C[C@H]4CN(Cc5cccc(Cl)c5)C[C@@]4(C(=O)SCF)[C@@]3(C)C[C@H](O)[C@@]12F", "nM", 45),
]

Reported EC50 ( Cc1cccc(CN2C[C@@H]3C[C@H]4[C@@H]5C[C@H](F)C6=CC(=O)C=C[C@]6(C)[C@@]5(F)[C@@H](O)C[C@]4(C)[C@]3(C(=O)CO)C2)c1 ) = 11.3

Reported EC50 ( CN1C[C@@H]2C[C@H]3[C@@H]4C[C@H](F)C5=CC(=O)C=C[C@]5(C)[C@@]4(F)[C@@H](O)C[C@]3(C)[C@]2(C(=O)CO)C1 ) = 54.9

Reported EC50 ( COC(=O)[C@@]12CN(Cc3ccccc3)C[C@@H]1C[C@H]1[C@@H]3C[C@H](F)C4=CC(=O)C=C[C@]4(C)[C@@]3(F)[C@@H](O)C[C@@]12C ) = 5.7
